The measurements presented in this section are drawn from paper PMC9455983.

target: mu-opioid receptor (MOR) (Rattus norvegicus, UniProt P33535); construct: Rat cortices were homogenized using 50 mM Tris, pH 7.4, and centrifuged at 16,500 rpm for 10 min; from tissue; host or cells: rat cortex membranes; assay: MOR radioligand competition binding assay ([3H]-DAMGO); conditions: Mu screening results, mean of Exp 1 and Exp 2; unit inferred; read-out: MEAN (Ki)
Sequence (P33535 whole entry): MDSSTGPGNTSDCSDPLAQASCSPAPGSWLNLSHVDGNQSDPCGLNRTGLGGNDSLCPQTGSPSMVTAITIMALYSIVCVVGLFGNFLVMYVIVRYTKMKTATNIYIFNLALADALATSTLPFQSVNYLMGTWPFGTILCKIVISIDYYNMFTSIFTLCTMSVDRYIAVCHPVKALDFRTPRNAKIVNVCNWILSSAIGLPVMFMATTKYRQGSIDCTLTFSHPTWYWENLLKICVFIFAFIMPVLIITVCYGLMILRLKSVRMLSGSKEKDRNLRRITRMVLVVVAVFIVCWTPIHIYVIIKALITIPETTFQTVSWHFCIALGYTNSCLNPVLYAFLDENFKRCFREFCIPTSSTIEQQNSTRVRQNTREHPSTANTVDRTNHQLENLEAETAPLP
measurement_label: pKi
Scale note: pKi = -log10(concentration in M).

compound	pKi
CC(C)C[C@H]1CN([C@@H](Cc2ccccc2)CN2C(=N)NC[C@@H]2C)C(=N)N1 [1968-35]	5.35
Cc1cc(O)cc(C)c1C[C@H]1CNC(=N)N1C[C@H](Cc1ccccc1)N1C[C@H](Cc2ccc(O)cc2)NC1=N [1968-50]	7.06

Note pKi for the compound shown: N=C1NC[C@H](Cc2ccc(O)cc2)N1C[C@H](Cc1ccc(O)cc1)N1C[C@H](Cc2ccccc2)NC1=N [1968-21] 6.73

Note pKi for the compound shown: CC(C)C[C@@H](CN1C(=N)NC[C@@H]1Cc1ccc(O)cc1)N1C[C@H](Cc2ccccc2)NC1=N [1968-25] 6.15

Note pKi for the compound shown: C[C@H]1CNC(=N)N1C[C@H](Cc1ccc(O)cc1)N1C[C@H](Cc2ccc(O)cc2)NC1=N [1968-38] 6.74

Note pKi for the compound shown: C[C@H]1CNC(=N)N1C[C@H](Cc1ccccc1)N1C[C@H](Cc2ccc(O)cc2)NC1=N [1968-34] 5.89

Note pKi for the compound shown: Cc1cc(O)cc(C)c1C[C@H]1CNC(=N)N1C[C@H](Cc1ccccc1)N1C[C@H](CC(C)C)NC1=N [1968-51] 6.84

Note pKi for the compound shown: Cc1cc(O)cc(C)c1C[C@H]1CNC(=N)N1C[C@H](Cc1ccccc1)N1C[C@H](Cc2ccccc2)NC1=N [1968-49] 7.16

Note pKi for the compound shown: N=C1NC[C@H](Cc2ccccc2)N1C[C@H](Cc1ccccc1)N1C[C@H](Cc2ccccc2)NC1=N [1968-65] 5.59

Note pKi for the compound shown: Cc1cc(O)cc(C)c1C[C@H]1CN([C@@H](Cc2ccccc2)CN2C(=N)NC[C@@H]2C)C(=N)N1 [1968-36] 6.84

Note pKi for the compound shown: Cc1cc(O)cc(C)c1C[C@H]1CNC(=N)N1C[C@H](Cc1ccc(O)cc1)N1C[C@H](CC(C)C)NC1=N [1968-71] 7.26

Note pKi for the compound shown: Cc1cc(O)cc(C)c1C[C@@H](CN1C(=N)NC[C@@H]1Cc1ccccc1)N1C[C@H](Cc2ccccc2)NC1=N [1968-67] 6.69
